# TGT: HLA-DRB1*0301 (human)
# ASSAY_OVERVIEW: competition with 125I probe peptide, purified HLA
RECORDED_METRIC: IC50 (nM)
Field format: number, assumed nM, no unit text.

Request the reported IC50 associated with RLQLSNDNRTLTLLS [CEA.368]
938
